Tested on: human hepatocytes
Experiment: Hepatocytes stability assay (human hepatocytes)
Type: in vitro ADME
Details: scaled hepatic clearance divided by liver blood flow, fu assumed unity

[
  {
    "compound": "CS(=O)(=O)N[C@H]1CCN2C(=O)COc3c(F)cccc3C3CCC(CC3)OCC12 (stereo partly shown)",
    "Extraction Ratio (ER)": 0.89
  },
  {
    "compound": "CS(=O)(=O)N[C@H]1CCCN2CCOc3ccc(Cl)cc3C3CCC(CC3)OCC12 (stereo partly shown)",
    "Extraction Ratio (ER)": 0.83
  },
  {
    "compound": "CS(=O)(=O)N[C@H]1CCCN2C(=O)CCCOc3ccccc3C3CCC(CC3)OCC12 (stereo partly shown)",
    "Extraction Ratio (ER)": 0.81
  },
  {
    "compound": "C[C@H]1Oc2ccccc2C2CCC(CC2)OCC2[C@@H](NS(C)(=O)=O)CCCN2C1=O (stereo partly shown)",
    "Extraction Ratio (ER)": 0.82
  }
]

---

Test: Hepatocytes stability assay (human hepatocytes)
Assay type: in vitro ADME
Conditions: both sexes, cryopreserved hepatocytes, 1 μM test compound, 1×10^6 cell/mL, 37 degrees C, read-out: CLint (μL/min/million cells)
Please respond with 1 when measured hepatocyte CLint at 1 μM is strictly beneath 40 µL/min/1e6 cells, and with 0 in all other cases.

[
  {
    "compound": "[2H]C1([2H])COc2ccccc2C2CCC(CC2)OCC2[C@@H](NS(C)(=O)=O)CCCN21 (stereo partly shown)",
    "discrete-label": 0
  },
  {
    "compound": "CS(=O)(=O)N[C@H]1CCN2C(=O)COc3ncccc3C3CCC(CC3)OCC12 (stereo partly shown)",
    "discrete-label": 1
  },
  {
    "compound": "CS(=O)(=O)N[C@H]1CCN2C(=O)C(F)(F)Oc3ccccc3C3CCC(CC3)OCC12 (stereo partly shown)",
    "discrete-label": 1
  },
  {
    "compound": "[2H][C@@H]1[C@@H]2C[C@H]([2H])[C@@]([2H])(c3cc(F)cc(F)c3OCC(=O)N3CCC[C@H](NS(C)(=O)=O)C3CO2)[C@@H]1[2H] (stereo partly shown)",
    "discrete-label": 1
  },
  {
    "compound": "CS(=O)(=O)N[C@H]1CCCN2C(=O)C(F)(F)Oc3ccccc3C3CCC(CC3)OCC12 (stereo partly shown)",
    "discrete-label": 0
  },
  {
    "compound": "CS(=O)(=O)N[C@H]1CCCN2C(=O)CCCCOc3ccccc3C3CCC(CC3)OCC12 (stereo partly shown)",
    "discrete-label": 0
  },
  {
    "compound": "CS(=O)(=O)N[C@H]1CCCN2C(=O)CCOc3ccccc3C3CCC(CC3)OCC12 (stereo partly shown)",
    "discrete-label": 1
  }
]

---

Test system: MDR1
Assay: MDCK-MDR1 permeability assay
Assay type: in vitro ADME
Conditions: dog, MDCK-MDR1, MDCK-MDR1 cells, apical to basolateral, 3 μM test compound, 2 hours at 37 degrees C
measurement-name: Papp A→B at 2 h, 3 μM

[
  {
    "molecule": "CS(=O)(=O)N[C@H]1CCCN2C(=O)COc3ccc(Br)cc3C3CCC(CC3)OCC12 (stereo partly shown)",
    "observed-value": "0.16 ×10⁻⁶ cm/s"
  },
  {
    "molecule": "CS(=O)(=O)N[C@H]1CCN2C(=O)COc3ncccc3C3CCC(CC3)OCC12 (stereo partly shown)",
    "observed-value": "3.9 ×10⁻⁶ cm/s"
  },
  {
    "molecule": "CS(=O)(=O)N[C@H]1CCCN2C(=O)CCCOc3ccccc3C3CCC(CC3)OCC12 (stereo partly shown)",
    "observed-value": "0.47 ×10⁻⁶ cm/s"
  },
  {
    "molecule": "CS(=O)(=O)N[C@H]1CCCN2C(=O)CCOc3ccccc3C3CCC(CC3)OCC12 (stereo partly shown)",
    "observed-value": "0.15 ×10⁻⁶ cm/s"
  },
  {
    "molecule": "CS(=O)(=O)N[C@H]1CCCN2C(=O)COc3ccc(Cl)cc3C3CCC(CC3)OCC12 (stereo partly shown)",
    "observed-value": "0.59 ×10⁻⁶ cm/s"
  },
  {
    "molecule": "CS(=O)(=O)N[C@H]1CCCN2C(=O)COc3ccccc3C3CC[C@@H](CO3)OCC12 (stereo partly shown)",
    "observed-value": "0.48 ×10⁻⁶ cm/s"
  },
  {
    "molecule": "CS(=O)(=O)N[C@H]1CCCN2C(=O)CCc3ccccc3C3CCC(CC3)OCC12 (stereo partly shown)",
    "observed-value": "0.29 ×10⁻⁶ cm/s"
  },
  {
    "molecule": "CS(=O)(=O)N[C@H]1CCCN2C(=O)CCCCOc3ccccc3C3CCC(CC3)OCC12 (stereo partly shown)",
    "observed-value": "0.8 ×10⁻⁶ cm/s"
  },
  {
    "molecule": "COC(=O)N1CCC[C@H](NS(C)(=O)=O)[C@@H]1CO[C@H]1CC[C@@H](c2ccccc2)CC1 [reference compound]",
    "observed-value": "5.9 ×10⁻⁶ cm/s"
  },
  {
    "molecule": "CS(=O)(=O)N[C@H]1CCCN2C(=O)C(F)(F)Oc3ccccc3C3CCC(CC3)OCC12 (stereo partly shown)",
    "observed-value": "3.6 ×10⁻⁶ cm/s"
  },
  {
    "molecule": "CS(=O)(=O)N[C@H]1CCCN2C(=O)COc3c(F)cccc3C3CCC(CC3)OCC12 (stereo partly shown)",
    "observed-value": "2.2 ×10⁻⁶ cm/s"
  },
  {
    "molecule": "CS(=O)(=O)N[C@H]1CCCN2C(=O)COc3ccccc3C3CCC(CC3)OCC12 (stereo partly shown)",
    "observed-value": "0.89 ×10⁻⁶ cm/s"
  },
  {
    "molecule": "CC1(C)Oc2ccccc2C2CCC(CC2)OCC2[C@@H](NS(C)(=O)=O)CCCN2C1=O (stereo partly shown)",
    "observed-value": "2 ×10⁻⁶ cm/s"
  },
  {
    "molecule": "CS(=O)(=O)N[C@@H]1CCCN2C(=O)COc3cnccc3[C@H]3CC[C@H](CC3)OC[C@H]12 (racemic)",
    "observed-value": "0.09 ×10⁻⁶ cm/s"
  },
  {
    "molecule": "CC1(C)CN2CCC[C@H](NS(C)(=O)=O)C2COC2CCC(CC2)c2ccccc2O1 (stereo partly shown)",
    "observed-value": "6.3 ×10⁻⁶ cm/s"
  },
  {
    "molecule": "C[C@H]1CN2CCC[C@H](NS(C)(=O)=O)C2COC2CCC(CC2)c2ccccc2O1 (stereo partly shown)",
    "observed-value": "7.3 ×10⁻⁶ cm/s"
  }
]

---

System: MDR1
Assay: MDCK-MDR1 permeability assay
Type: in vitro ADME
Conditions: dog, MDCK-MDR1, Papp (basolateral to apical) divided by Papp (apical to basolateral), MDCK-MDR1 cells, 3 μM; read-out: Efflux ratio (ER)
Reported values of efflux ratio at 2 h, 3 μM for individual entries

[
  {
    "compound": "CS(=O)(=O)N[C@@H]1CCCN2C(=O)COc3cnccc3[C@H]3CC[C@H](CC3)OC[C@H]12 (racemic) [Compound 47]",
    "target-of-assay": "MDR1",
    "efflux ratio at 2 h, 3 μM": 49
  },
  {
    "compound": "CC1(C)Oc2ccccc2C2CCC(CC2)OCC2[C@@H](NS(C)(=O)=O)CCCN2C1=O (stereo partly shown) [Compound 36]",
    "target-of-assay": "MDR1",
    "efflux ratio at 2 h, 3 μM": 9.5
  },
  {
    "compound": "CS(=O)(=O)N[C@H]1CCCN2C(=O)CCCOc3ccccc3C3CCC(CC3)OCC12 (stereo partly shown) [Compound 4]",
    "target-of-assay": "MDR1",
    "efflux ratio at 2 h, 3 μM": 97
  },
  {
    "compound": "CS(=O)(=O)N[C@H]1CCN2C(=O)COc3ccccc3C3CCC(CC3)OCC12 (stereo partly shown) [Compound 7]",
    "target-of-assay": "MDR1",
    "efflux ratio at 2 h, 3 μM": 2.2
  },
  {
    "compound": "CS(=O)(=O)N[C@H]1CCN2C(=O)COc3c(F)cccc3C3CCC(CC3)OCC12 (stereo partly shown) [Compound 42]",
    "target-of-assay": "MDR1",
    "efflux ratio at 2 h, 3 μM": 1.3
  },
  {
    "compound": "CS(=O)(=O)N[C@H]1CCCN2C(=O)COc3nccnc3C3CCC(CC3)OCC12 (stereo partly shown) [Compound 55]",
    "target-of-assay": "MDR1",
    "efflux ratio at 2 h, 3 μM": 77
  },
  {
    "compound": "[2H][C@@H]1[C@@H]2C[C@H]([2H])[C@@]([2H])(c3cc(F)cc(F)c3OCC(=O)N3CCC[C@H](NS(C)(=O)=O)C3CO2)[C@@H]1[2H] (stereo partly shown) [Compound 50]",
    "target-of-assay": "MDR1",
    "efflux ratio at 2 h, 3 μM": 21
  }
]
